Source: ChEMBL document CHEMBL1137358

Biological target: UniProt P33261
Sequence (P33261 whole entry): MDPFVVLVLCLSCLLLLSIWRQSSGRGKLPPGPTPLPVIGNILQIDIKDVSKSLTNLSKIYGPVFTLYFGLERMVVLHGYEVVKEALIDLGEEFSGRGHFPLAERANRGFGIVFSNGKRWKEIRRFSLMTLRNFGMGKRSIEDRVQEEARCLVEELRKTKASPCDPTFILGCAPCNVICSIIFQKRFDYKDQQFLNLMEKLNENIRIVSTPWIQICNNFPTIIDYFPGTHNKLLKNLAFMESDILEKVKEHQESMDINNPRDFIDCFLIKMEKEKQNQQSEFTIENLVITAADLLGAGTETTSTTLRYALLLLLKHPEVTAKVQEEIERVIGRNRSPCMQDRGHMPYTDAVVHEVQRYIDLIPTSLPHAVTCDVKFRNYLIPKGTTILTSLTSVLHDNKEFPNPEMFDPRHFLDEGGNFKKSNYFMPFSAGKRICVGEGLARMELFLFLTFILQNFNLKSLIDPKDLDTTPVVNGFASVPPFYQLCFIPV
Binarize Ki at 30 µM; below is T, at or above is F.

Please review the entries below; each comes with its answer.
[
  {
    "Structure as smiles": "NCCCc1cccnc1",
    "Class": "F"
  },
  {
    "Structure as smiles": "Cc1csc(-c2cccnc2)n1",
    "Class": "F"
  },
  {
    "Structure as smiles": "CN(C)CC#Cc1cccnc1",
    "Class": "F"
  },
  {
    "Structure as smiles": "Cc1cscc1-c1ccccc1",
    "Class": "F"
  },
  {
    "Structure as smiles": "CNCC#Cc1cccnc1",
    "Class": "T"
  }
]

Decide: Ki of c1cncc(-c2c[nH]cn2)c1 strictly below 30 µM? T

Could you please tell me whether Ki recorded for c1cncc(-c2cc[nH]n2)c1 is less than 30 µM? F

Please let me know if c1cncc(-c2ccsc2)c1 shows Ki below 30 µM. F

Given the entry CC(=O)SCc1ccc(-c2cccnc2)o1 , would its reported Ki be below 30 µM? T

Bench note: check whether c1ccc(-c2ccsc2)cc1 shows Ki below 30 µM F

---

Can you tell me Ki for the items I'm about to list?
Target: Cytochrome P450 2A6 (Homo sapiens)
Sequence (P11509 whole entry): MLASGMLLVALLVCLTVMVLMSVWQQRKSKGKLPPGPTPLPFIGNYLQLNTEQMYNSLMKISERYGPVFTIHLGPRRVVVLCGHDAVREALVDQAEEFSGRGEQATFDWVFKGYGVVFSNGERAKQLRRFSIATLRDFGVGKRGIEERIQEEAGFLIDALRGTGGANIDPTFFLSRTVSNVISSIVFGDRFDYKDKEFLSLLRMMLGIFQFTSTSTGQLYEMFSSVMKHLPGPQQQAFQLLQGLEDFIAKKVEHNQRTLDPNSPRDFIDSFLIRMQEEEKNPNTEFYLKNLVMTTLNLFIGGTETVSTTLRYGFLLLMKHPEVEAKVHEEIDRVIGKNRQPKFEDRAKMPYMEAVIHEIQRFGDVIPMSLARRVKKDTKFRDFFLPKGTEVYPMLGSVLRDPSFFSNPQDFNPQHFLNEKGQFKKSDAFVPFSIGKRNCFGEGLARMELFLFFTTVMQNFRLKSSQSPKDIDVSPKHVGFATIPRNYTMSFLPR

Give Ki for all molecules that follow.
1. SCc1ccc(-c2cccnc2)o1
2. CN(C)CC#Cc1cccnc1
3. Cn1cnc(-c2cccnc2)c1
4. c1cncc(-c2ccc(C3SCCS3)o2)c1

< 0.8 µM
67.5 µM
0.4 µM
13.9 µM

---

System: CYP2A6 over CYP3A4
Experiment: Selectivity for CYP2A6 over CYP3A4
Conditions: human
Assay readout: selectivity ratio

[
  {
    "Structure as smiles": "NCc1cc(-c2cccnc2)n[nH]1",
    "System": "CYP2A6 over CYP3A4",
    "selectivity ratio": "> 690"
  },
  {
    "Structure as smiles": "Cc1cscc1-c1ccccc1",
    "System": "CYP2A6 over CYP3A4",
    "selectivity ratio": "> 400"
  },
  {
    "Structure as smiles": "SCc1ccc(-c2cccnc2)o1",
    "System": "CYP2A6 over CYP3A4",
    "selectivity ratio": "> 4.1"
  },
  {
    "Structure as smiles": "NCc1cc(-c2cccnc2)no1",
    "System": "CYP2A6 over CYP3A4",
    "selectivity ratio": "> 541"
  },
  {
    "Structure as smiles": "c1cncc(-c2cc[nH]n2)c1",
    "System": "CYP2A6 over CYP3A4",
    "selectivity ratio": "> 15.6"
  },
  {
    "Structure as smiles": "NCCCc1cccnc1",
    "System": "CYP2A6 over CYP3A4",
    "selectivity ratio": "> 400"
  }
]

Next:
Record for CN(C)CC#Cc1cccnc1 under target or system CYP2A6 over CYP3A4: selectivity ratio reported as > 3

---

System: CYP2A6 over CYP2E1
Assay: Selectivity for CYP2A6 over CYP2E1
Details: human
Assay readout: selectivity ratio

Examples with answers:
[
  {
    "Structure as smiles": "NCCCc1cccnc1",
    "System": "CYP2A6 over CYP2E1",
    "selectivity ratio": "> 30"
  },
  {
    "Structure as smiles": "NCc1cc(-c2cccnc2)n[nH]1",
    "System": "CYP2A6 over CYP2E1",
    "selectivity ratio": "> 690"
  },
  {
    "Structure as smiles": "CN(C)CC#Cc1cccnc1",
    "System": "CYP2A6 over CYP2E1",
    "selectivity ratio": "> 3"
  },
  {
    "Structure as smiles": "CN(C)Cc1ccc(-c2cccnc2)s1",
    "System": "CYP2A6 over CYP2E1",
    "selectivity ratio": "> 3"
  },
  {
    "Structure as smiles": "c1ccc(-c2ccsc2)cc1",
    "System": "CYP2A6 over CYP2E1",
    "selectivity ratio": "> 32.3"
  }
]

Can you give me selectivity ratio for all of these, one by one?
1. SCc1ccc(-c2cccnc2)o1
2. c1cncc(-c2ccsc2)c1
3. CNCc1ccc(-c2cccnc2)o1

1: < 0.1; 2: > 286; 3: > 250
